Values were extracted from the supplement of paper PMC12042874.

procedure details: amyloid nucleation score (Sup35N fusion, yeast selection) (log enrichment); library NNK2; higher = more nucleation; inactive = no reads after selection;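 further: zero at mode of non-aggregating sequences after 7 days selection at 30°C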
measure: amyloid nucleation score

In the examples that follow, each entry is paired with its recorded amyloid nucleation score.
# substance, amyloid nucleation score
records = [
    ("FRILFGFRCNLRGSSQVLIG", "inactive"),
    ("TMGNHFVFVS", "inactive"),
    ("RVSCNRVRVYCWLVWRLIPN", "inactive"),
    ("LRFNDFA", "inactive"),
    ("SRLNNLRYLYYLTGFRSLMT", "inactive"),
    ("LRLIDNYMGSSRMMS", "inactive"),
]

Qu. For the substance KKKYACRPAVRFLSIYCWFA , give its measured amyloid nucleation score value.
Ans. 0.406

Qu. For the substance SLNFFIMSKSSTGVSSFLYV , give its measured amyloid nucleation score value.
Ans. 6.48

Qu. For the substance NRCLGIT , give its measured amyloid nucleation score value.
Ans. 0.231

###

procedure details: amyloid nucleation score (Sup35N fusion, yeast selection) (log enrichment); library NNK3; higher = more nucleation; inactive = no reads after selection
# amyloid nucleation score per entry
API note: the answer field is a bare number with no unit suffix.

# substance, amyloid nucleation score
data = [
    ("GKLYPKNVSWILFSAETYLY", 2.54),
]

Let us examine a further case.
Qu. For the substance LPWSINRCNRVENQLVYVWN , give its measured amyloid nucleation score value.
Ans. 1.1

###

procedure details: amyloid nucleation score (Sup35N fusion, yeast selection) (log enrichment); library NNK3; higher = more nucleation; inactive = no reads after selection
measure: amyloid nucleation score

In the examples that follow, each entry is paired with its recorded amyloid nucleation score.
# item sequence, result
data = [
    ("VRMVKYCLTLSSRTYCLIIM", "inactive"),
    ("VFHRSSLNSSRAGWH", "inactive"),
    ("FLANGSDWIFLWFRIHVDHF", "inactive"),
    ("NLLAMRLWQAQSMKRSLGFL", "inactive"),
    ("EFCIRRIM", "inactive"),
]

Qu. For the sequence HSSSYCSSYKERSIPWSW , give its measured amyloid nucleation score value.
Ans. 0.93

###

procedure details: amyloid nucleation score (Sup35N fusion, yeast selection) (log enrichment); library NNK1; higher = more nucleation; inactive = no reads after selection
Where amyloid nucleation score equals or exceeds -0.07, the correct label is 1.0; where it does not, the label is 0.0.

Completed entries (count: 10):
# substance, answer label
measured = [
    ("KYYMHLSSRDRRGAAWHLLF", 0.0),
    ("NLILIR", 1.0),
    ("RRNVWASVTGGELWKGDLSR", 0.0),
    ("KYVIGVNAMEWWPTTTAI", 1.0),
    ("CLVHVRVSHNWDVTMMFGVR", 1.0),
    ("PCFYSSGDVVMNRGV", 0.0),
    ("ERMSRLCSQSGARRKCGAGC", 1.0),
    ("SLACRVGKYNHSYLSSLV", 1.0),
    ("DVIMEGFAMCVWSRVTALLE", 1.0),
    ("FRDYLAKPCGGWEEYLVDDT", 1.0),
]

Qu. Is it the case that KSSTKGLISRGRFGYRVPSN has amyloid nucleation score reaching or exceeding -0.07?
Ans. 0.0

Qu. Is it the case that RVYYSRYYVFDHSYFDTRRG has amyloid nucleation score reaching or exceeding -0.07?
Ans. 0.0

Qu. Is it the case that VDNIYAGVELLFSCKM has amyloid nucleation score reaching or exceeding -0.07?
Ans. 0.0

Qu. Is it the case that PYRFSYKVVESSICDNLRRR has amyloid nucleation score reaching or exceeding -0.07?
Ans. 0.0

Qu. Is it the case that TNIFMSFKFLISSLRCFPER has amyloid nucleation score reaching or exceeding -0.07?
Ans. 1.0

Qu. Is it the case that VALDSSLHTSVYRIVSLSIG has amyloid nucleation score reaching or exceeding -0.07?
Ans. 0.0

Qu. Is it the case that CLAFQLDWLRMGLFKSMEGT has amyloid nucleation score reaching or exceeding -0.07?
Ans. 0.0

Qu. Is it the case that GRMGVSSWAGSQRVLIGENL has amyloid nucleation score reaching or exceeding -0.07?
Ans. 1.0

Qu. Is it the case that VLQRVQKPLLCMRVLDIYAW has amyloid nucleation score reaching or exceeding -0.07?
Ans. 0.0

Qu. Is it the case that YKDFVGRTEFYRVGMFRLTE has amyloid nucleation score reaching or exceeding -0.07?
Ans. 1.0

Qu. Is it the case that IIIPFLSNSCEFMWL has amyloid nucleation score reaching or exceeding -0.07?
Ans. 1.0

Qu. Is it the case that ISPVGIIMYQCSAWLTRFRS has amyloid nucleation score reaching or exceeding -0.07?
Ans. 1.0

Qu. Is it the case that APSTDGMNMPTNGDRTPTLW has amyloid nucleation score reaching or exceeding -0.07?
Ans. 1.0

###

procedure details: amyloid nucleation score (Sup35N fusion, yeast selection) (log enrichment); library NNK1; higher = more nucleation; inactive = no reads after selection
Where amyloid nucleation score equals or exceeds 0.7, the correct label is 1 (yes); where it does not, the label is 0 (no).

Completed entries (count: 10):
# substance, answer label
data = [
    ("DTRTSNNPALFRGFTALRVR", "0 (no)"),
    ("FAFTIFPCYYWDLNCLRFQH", "1 (yes)"),
    ("IMNLSRNRVGLRVYGI", "0 (no)"),
    ("SNPYVWDVPLSRLWFVSWEL", "0 (no)"),
    ("KANFFTLRSMFWGPMN", "1 (yes)"),
    ("IVMVVMSSFGINEHPPDNQN", "1 (yes)"),
    ("SGKSNSKPALEYYVSFFIDL", "0 (no)"),
    ("YVIHLPKCTKLWMWANCFLW", "0 (no)"),
    ("AVMFVTCLIVSASGHLLYTL", "1 (yes)"),
    ("RGNSFIRRY", "0 (no)"),
]

Qu. Is it the case that FNMENVGKSQSRAAVRVRH has amyloid nucleation score reaching or exceeding 0.7?
Ans. 1 (yes)

Qu. Is it the case that RSEVYFNWGLNASMEVSPLC has amyloid nucleation score reaching or exceeding 0.7?
Ans. 0 (no)

###

procedure details: amyloid nucleation score (Sup35N fusion, yeast selection) (log enrichment); library NNK2; higher = more nucleation; inactive = no reads after selection
measure: amyloid nucleation score
API note: the answer field is a bare number with no unit suffix.

In the examples that follow, each entry is paired with its recorded amyloid nucleation score.
# substance, measure, number
rows = [
    ("LTIYRSHDVRM", "amyloid nucleation score", 3.88),
    ("VYEGSLCLAYERLTGMGFIK", "amyloid nucleation score", -0.382),
    ("SWGLPKVVIGGLQMRLEVGA", "amyloid nucleation score", 0.754),
]

Qu. For the substance SRAAPDINS , give its measured amyloid nucleation score value.
Ans. 0.251

Qu. For the substance CNFVRSYDCHQVKLSI , give its measured amyloid nucleation score value.
Ans. -1.18

###

procedure details: amyloid nucleation score (Sup35N fusion, yeast selection) (log enrichment); library NNK1; higher = more nucleation; inactive = no reads after selection
measure: amyloid nucleation score
API note: the answer field is a bare number with no unit suffix.

In the examples that follow, each entry is paired with its recorded amyloid nucleation score.
# substance, amyloid nucleation score
rows = [
    ("REGATIPWFRCNRLE", -0.167),
    ("SILCIF", 0.338),
]

Let us examine a further case.
Qu. For the substance NDRTKNQSYFP , give its measured amyloid nucleation score value.
Ans. -0.195

###

procedure details: amyloid nucleation score (Sup35N fusion, yeast selection) (log enrichment); library NNK2; higher = more nucleation; inactive = no reads after selection
measure: amyloid nucleation score

# substance, amyloid nucleation score
measured = [
    ("CIIVISFLTITWKCAEPELQ", "inactive"),
    ("RARFWINGFRVL", "inactive"),
    ("VCHHSSI", "inactive"),
    ("LSRRAINHFYNIITEVAGRG", "inactive"),
    ("DCLLCFFGSHSILVRPILKV", "inactive"),
    ("AYEGFISYLIYLSIRNSSPC", "inactive"),
    ("FSSSWKGRFVNNSRVVGKSR", -0.367),
    ("HSCVYYTVYLRLFSMKGSEN", 5.36),
    ("KLSIWGLRGVVGAWRCHTGY", "inactive"),
    ("MDHCTFYIRGMMPRMYGCTK", -0.711),
]

Qu. For the substance ISLISHVLANLSVIRDHANE , give its measured amyloid nucleation score value.
Ans. -0.68

###

procedure details: amyloid nucleation score (Sup35N fusion, yeast selection) (log enrichment); library NNK1; higher = more nucleation; inactive = no reads after selection
Where amyloid nucleation score equals or exceeds 0.9, the correct label is 1; where it does not, the label is -1.

# item sequence, answer label
rows = [
    ("IGITRILFVFFIDTATIKNG", -1),
]

Qu. Is it the case that EWLLARMTISKRMMW has amyloid nucleation score reaching or exceeding 0.9?
Ans. -1

Qu. Is it the case that VDMNWVITGTNWEFRLRVDA has amyloid nucleation score reaching or exceeding 0.9?
Ans. -1

Qu. Is it the case that EFLNSNLLNTYMKLFLIITH has amyloid nucleation score reaching or exceeding 0.9?
Ans. 1

Qu. Is it the case that QEYRDMILKPFHRWFTMFK has amyloid nucleation score reaching or exceeding 0.9?
Ans. 1
